// provenance: patent US20230295166A1

system: LoVo (CCL-229) cells; assay: Tumor cell anti-proliferation assay (CTG assay); format: cell-based; details: LoVo human colorectal cancer cells, 96 h, CellTiter-Glo
pIC50: −log10 of the molar value.
Respond with 1 (yes) for pIC50 values of 8 and above, 0 (no) for values below.

State whether the measured pIC50 reaches 8, counting equality as reaching it, for C[C@@H]1COCCN1c1cc(C(C)(C)C#N)c2cnc(-c3ccn[nH]3)n2n1 0 (no)

// repeat for Cc1cc(-c2nsc3c(S(=O)(=O)C4CC4)cc(N4CCOC[C@H]4C)nc23)[nH]n1 and report 1 (yes)

For CS(=O)(=O)C1(c2cc(N3C[C@H]4CC[C@@H](C3)O4)nn3c(-c4ccn[nH]4)ncc23)CC1 then? 0 (no)

Okay, and Cc1cc(-c2nsc3c(-c4c(C)nnn4C)cc(N4CCOC[C@H]4C)nc23)[nH]n1 ? 0 (no)

What do you have for C[C@@H]1COCCN1c1cc(-c2cccnc2F)n2ncc(-c3ccn[nH]3)c2n1 ? 0 (no)

Please give the result for Cc1cc(-c2nsc3c(-c4ncnn4C)cc(N4CCOC[C@H]4C)nc23)[nH]n1 too. 0 (no)

And the next one, C[C@@H]1COCCN1c1cc(C2(O)CCCCC2)c2snc(-c3ccn[nH]3)c2n1 ? 1 (yes)

Try this compound too: Cc1cnn(C)c1-c1cc(N2CCOC[C@H]2C)nc2c(-c3ccn[nH]3)nsc12 0 (no)

Field entry: Cc1cc(-c2nsc3c(-c4ccnn4C)cc(N4CCOC[C@H]4C)nc23)[nH]n1 0 (no)

* * *

Could you please report measured pIC50 for the items listed next?
system: LoVo (CCL-229) cells; experiment: Tumor cell anti-proliferation assay (CTG assay); assay type: cell-based; details: LoVo human colorectal cancer cells, 96 h, CellTiter-Glo
On this scale, pIC50 is minus log10 of a concentration expressed in M (mol/L).

Which pIC50 reading was recorded for the compound C[C@@H]1COCCN1c1cc(C2(C(N)=O)CCCC2)c2snc(-c3ccn[nH]3)c2n1 ? 8.30

Next entry: C[C@@H]1COCCN1c1cc(C2(S(C)(=O)=O)CC2)c2snc(-c3ccn[nH]3)c2n1 7.79

// query: Cc1cc(-c2nc(Cl)c3c(-c4ccnn4C)cc(N4CCOC[C@H]4C)nn23)[nH]n1 7.84

Please answer likewise for Cc1cc(-c2ncc3c(C(C)(C)C#N)cc(N4CCOC[C@H]4C)nn23)[nH]n1 7.82

* * *

tested on: LoVo (CCL-229) cells; experiment: Tumor cell anti-proliferation assay (CTG assay); type: cell-based; conditions: LoVo human colorectal cancer cells, 96 h, CellTiter-Glo
Would you mind telling me the reported IC50 of each entry?
Kindly provide the numeric value in nM only, without the unit symbol.

Record Cc1cc(-c2nc(C)c3c(-c4ccnn4C)cc(N4CC5CCC(C4)O5)nn23)[nH]n1 : what is its IC50 with LoVo (CCL-229) cells? 69

Another compound to check: C[C@@H]1COCCN1c1cc(C(C)(C)S(C)(=O)=O)c2snc(-c3ccn[nH]3)c2n1 13.7

Could you do the same for Cc1cc(-c2ncc3c(-c4c(C)nnn4C)cc(N4CCOC[C@H]4C)nn23)[nH]n1 , please? 129

* * *

system: LoVo (CCL-229) cells; assay: Tumor cell anti-proliferation assay (CTG assay); assay type: cell-based; conditions: LoVo human colorectal cancer cells, 96 h, CellTiter-Glo
Consider the following compounds; for each one, report its log10(IC50).
Hello, just confirming the data are log10 of IC50 with units of nM.

Field request: log10(IC50) | item: Cc1cc(-c2nsc3c(P(C)(C)=O)cc(N4CCOC[C@H]4C)nc23)n(C2CCCCO2)n1 (stereo partly drawn) 1.54

Try C[C@@H]1COCCN1c1cc(-c2ccnn2C)c2cnc(-c3ccn[nH]3)n2n1 next. 1.83

Input C[C@@H]1COCCN1c1cc(-c2ccnn2C)n2ccc(-c3ccn[nH]3)c2n1 2.67

Again, but for Cc1cc(-c2ncc3c(C(C)(C)S(C)(=O)=O)cc(N4CCOC[C@H]4C)nn23)[nH]n1 1.90

How about this compound: Cc1cc(-c2nsc3c(C(C)(C)C#N)cc(N4CCOC[C@H]4C)nc23)[nH]n1 1.82

Item: C[C@@H]1COCCN1c1cc(C2(S(C)(=O)=O)CC2)n2ncc(-c3ccn[nH]3)c2n1 2.71

Also check Cc1noc(C)c1-c1cc(N2CCOC[C@H]2C)nc2c(-c3ccn[nH]3)nsc12 2.00

How about this compound: C[C@@H]1COCCN1c1cc(C(C)(C)CO)c2snc(-c3ccn[nH]3)c2n1 1.20

Now the compound C[C@@H]1COCCN1c1cc(C2(C#N)CCCCC2)c2cnc(-c3ccn[nH]3)n2n1 0.61

Check C[C@@H]1COCCN1c1cc(C2(C#N)CCCC2)c2cnc(-c3ccn[nH]3)n2n1 too. 1.45

What would you report for Cc1cc(-c2nsc3c(C4(C#N)CCCCC4)cc(N4CCOC[C@H]4C)nc23)[nH]n1 ? 1.00

And for Cc1cc(-c2nsc3c(C4(C#N)CC4)cc(N4CCOC[C@H]4C)nc23)[nH]n1 ? 1.25

Quick one: Cc1cc(-c2nsc3c(C(C)(C)O)cc(N4CCOC[C@H]4C)nc23)[nH]n1 0.70

Then this compound: C[C@@H]1COCCN1c1cc(C2(S(C)(=O)=O)CC2)c2ncc(-c3ccn[nH]3)n2n1 2.79

Also Cc1cc(-c2nsc3c(-c4cccnc4C(F)(F)F)cc(N4CCOC[C@H]4C)nc23)[nH]n1 , if possible. 1.51

Queued: Cc1cc(-c2ncc3c(-c4ccnn4C)cc(N4CCOC[C@H]4C)nn23)[nH]n1 1.36

// next record Cc1cc(-c2cnn3c(C4(S(C)(=O)=O)CC4)cc(N4CCOC[C@H]4C)nc23)[nH]n1 2.58

Can you handle C[C@@H]1COCCN1c1cc(C2(C#N)CC2)c2snc(-c3ccn[nH]3)c2n1 next? 1.20

Then this compound: Cc1nc(-c2ccn[nH]2)n2nc(N3CCOC[C@H]3C)cc(-c3ccnn3C)c12 1.25

Also, C[C@@H]1COCCN1c1cc(C(C)(C)S(C)(=O)=O)c2cnc(-c3ccn[nH]3)n2n1 please. 1.94

Further, for Cc1cc(-c2nsc3c(Cl)cc(N4CCOC[C@H]4C)nc23)[nH]n1 ? 2.19

What would you report for Cc1cc(-c2cnc3c(-c4ccnn4C)cc(N4CCOC[C@H]4C)nn23)[nH]n1 ? 2.65

# iterate: C[C@@H]1COCCN1c1cc(C2(C#N)CC2)c2cnc(-c3ccn[nH]3)n2n1 1.64

Input Cc1cc(-c2nsc3c(-c4ccccc4S(C)(=O)=O)cc(N4CCOC[C@H]4C)nc23)[nH]n1 1.56

Entry to check: Cc1cc(-c2nsc3c(C4(S(C)(=N)=O)CC4)cc(N4CCOC[C@H]4C)nc23)[nH]n1 (stereo partly drawn) 1.08

Can you check Cc1cc(-c2nsc3c(C4(C#N)CCCC4)cc(N4CCOC[C@H]4C)nc23)[nH]n1 next? 1.00

Try this compound too: Cc1cc(-c2ncc3c(-c4ccnn4C)cc(N4CC5CCC(C4)O5)nn23)[nH]n1 2.39

Again, but for C[C@@H]1COCCN1c1cc(-c2ccnn2C)c2c(Cl)nc(-c3ccn[nH]3)n2n1 1.42

Lookup Cc1cc(-c2ncc3c(C4(S(C)(=O)=O)CC4)cc(N4CCOC[C@H]4C)nn23)[nH]n1 1.92

Please do the same for Cc1cc(-c2nsc3c(C4(O)CCCCC4)cc(N4CCOC[C@H]4C)nc23)[nH]n1 as well. 0.95

Please answer likewise for Cc1cc(-c2nsc3c(-c4c(C)noc4C)cc(N4CCOC[C@H]4C)nc23)[nH]n1 1.61

Quick one: C[C@@H]1COCCN1c1cc(C2(C#N)CCCC2)c2snc(-c3ccn[nH]3)c2n1 0.40

Now the same for Cc1cc(-c2ncc3c(C4(C#N)CC4)cc(N4CCOC[C@H]4C)nn23)[nH]n1 1.59

* * *

system: LoVo (CCL-229) cells; assay: Tumor cell anti-proliferation assay (CTG assay); assay type: cell-based; settings: LoVo human colorectal cancer cells, 96 h, CellTiter-Glo
For each record, write down the corresponding pIC50.
Scale explanation: pIC50 corresponds to minus log10 of a concentration expressed in moles per litre.

// lookup pIC50 for Cc1cc(-c2nsc3c(C(C)(C)CO)cc(N4CCOC[C@H]4C)nc23)[nH]n1 8.00

Same question for Cc1cc(-c2nsc3c(C4(CO)CCOCC4)cc(N4CCOC[C@H]4C)nc23)[nH]n1 please. 8.05

Follow-up item: CCn1nncc1-c1cc(N2CCOC[C@H]2C)nc2c(-c3cc(C)n[nH]3)nsc12 7.82

Consider next the compound C[C@@H]1COCCN1c1cc(C(C)(C)C#N)c2snc(-c3ccn[nH]3)c2n1 in the same way. 7.89

Query C[C@@H]1COCCN1c1cc(C2(C#N)CCOCC2)c2snc(-c3ccn[nH]3)c2n1 next 7.85

Please do the same for C[C@@H]1COCCN1c1cc(-c2cnnn2C)c2snc(-c3ccn[nH]3)c2n1 as well. 7.82

Then this compound: Cc1cc(-c2nsc3c(-c4cnnn4C)cc(N4CCOC[C@H]4C)nc23)[nH]n1 7.80

Next: Cc1cc(-c2nsc3c(C4(CO)CC4)cc(N4CCOC[C@H]4C)nc23)[nH]n1 7.85
